Target: GDP-bound KRAS wild-type protein (Homo sapiens)
Sequence (P01116 whole entry): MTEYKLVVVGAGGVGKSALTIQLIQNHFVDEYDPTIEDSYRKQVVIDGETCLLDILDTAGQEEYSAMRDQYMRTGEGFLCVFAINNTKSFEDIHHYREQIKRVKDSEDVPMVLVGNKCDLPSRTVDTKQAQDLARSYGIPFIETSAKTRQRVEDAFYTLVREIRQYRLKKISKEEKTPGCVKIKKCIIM
Assay: Binding to KRAS by surface plasmon resonance (SPR), Single Cycle Kinetics
Conditions: SPR, Single Cycle Kinetics, GDP-bound KRAS wild-type protein; read-out: KRAS KD
# Lookup of reported pKd keyed by entry
Lab note: report pKd as minus log10 of the concentration in molar units, number only.

CCO[C@@H]1C[C@H]2C(=O)NC3(CC(C)(C)C3)C(=O)N(C)[C@@H](C(CC)CC)C(=O)N(C)[C@H](C(=O)N(C)C)CC(=O)N(C)[C@@H](COC)C(=O)N[C@@H]([C@@H](C)CC)C(=O)N(C)CC(=O)N(C)[C@H]3C/C=C\CCN(C3=O)[C@@H](Cc3ccc(C(F)(F)F)cc3)C(=O)N(C)CC(=O)N[C@@H](CCc3ccc(C(F)(F)F)c(OC)c3)C(=O)N2C1 [PP2157]    9.72

### Prompt Which pKd value belongs to CCO[C@@H]1C[C@H]2C(=O)NC3(CCCC3)C(=O)N(C)[C@@H](C3CCCC3)C(=O)N(C)[C@H](C(=O)N3CCOCC3)CC(=O)N(C)[C@@H](COC)C(=O)N[C@@H]([C@@H](C)CC)C(=O)N3CC[C@H]3C(=O)N(C)[C@H]3CCCCCN(C3=O)[C@@H](Cc3ccc(C(F)(F)F)cc3)C(=O)N(C)CC(=O)N[C@@H](CCc3cc(F)c(C(F)(F)F)c(F)c3)C(=O)N2C1 [PP0867] ?
### Response 8.92
